Readings of solubility at 60 min for the listed compounds
Experimental Protocol: Phase solubility studies with HP-β-CD
Type: physicochemical
Condition Set: thermodynamic from solid; 37 °C, pH 6.5 sodium phosphate buffer, with HP-β-CD; read-out: S0 (solubility with HP-β-CD)

>  <Compound>
COc1ccc(C2C/C(=N\NC(=O)c3ccccc3)c3c(O)cc(O)cc3O2)cc1O (racemic)

>  <solubility at 60 min>
41 µM

$$$$
>  <Compound>
COc1ccc(C2CC(=O)c3c(O)cc(O)cc3O2)cc1O (stereo not shown) [Hesperetin, 3′,5,7-Trihydroxy-4′-methoxyflavanone]

>  <solubility at 60 min>
110 µM

$$$$
>  <Compound>
COc1ccc(C2CC(=NNC(N)=S)c3c(O)cc(O)cc3O2)cc1O (stereo not shown)

>  <solubility at 60 min>
68 µM

$$$$
>  <Compound>
COc1ccc(C2C/C(=N\NC(=O)c3ccncc3)c3c(O)cc(O)cc3O2)cc1O (racemic)

>  <solubility at 60 min>
15 µM

$$$$
